IC50, Epidermal growth factor receptor (Homo sapiens, UniProt P00533, L858R/T790M): measured values
measurement-label: IC50 (nM)

INSERT INTO measurements (compound, number) VALUES
  ('C#Cc1cccc(Nc2ncnc3cc(OCC4CCCO4)c4c(c23)OCCO4)c1 (stereo unspecified)', 121),
  ('COCCOc1cc2ncnc(Nc3cccc(OC)c3)c2c2c1OCCO2', 109);

A = C#Cc1cccc(Nc2ncnc3cc(OC(C)C)c4c(c23)OCCO4)c1
B = CCOc1cc2ncnc(Nc3cccc(OC)c3)c2c2c1OCCO2
C = CCOc1cc2ncnc(Nc3ccc(C)cc3)c2c2c1OCCO2
D = CC(C)Oc1cc2ncnc(Nc3ccc(F)c(Cl)c3)c2c2c1OCCO2
Let's sort these by IC50, smallest first. Go ahead? A complete answer lists every label in the requested sequence.
A, D, B, C

Entry source: ChEMBL document CHEMBL3804755
